Target: wild type human RORγt ligand binding domain (RORγt LBD) (Homo sapiens)
Construct: His-tag (N); TurboTEV protease cleavage site (ENLYFQG) (N)
Sequence (P51449 269-508 limits assumed): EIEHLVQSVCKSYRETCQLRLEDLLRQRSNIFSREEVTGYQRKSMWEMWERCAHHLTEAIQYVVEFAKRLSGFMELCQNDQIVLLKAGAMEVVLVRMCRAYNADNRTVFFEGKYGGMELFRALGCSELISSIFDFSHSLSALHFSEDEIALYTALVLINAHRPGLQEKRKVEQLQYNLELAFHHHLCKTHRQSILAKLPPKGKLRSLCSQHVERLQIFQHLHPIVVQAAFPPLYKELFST
Assay: RORγt ThermoFluor® Assay (thermal shift, binding affinity)
Details: pH 7.0, estimated from concentration response curves
Description: This approach is applicable to a wide variety of systems, and rigorous in theoretical interpretation through quantitation of equilibrium binding constants (KD). […] Bar-coded assay plates are robotically loaded onto a thermostatically controlled PCR-type thermal block and then heated at a typical ramp-rate of 1 °C/min for all experiments. […] Images were collected at each temperature, and the sum of the pixel intensity in a given area of the assay plate was recorded versus temperature. […]
Listing: Kd of selected compounds
Give your result in µM as a bare value.

{"Compound": "OC(c1cccnc1)(c1ccc2nc(Cl)c(-c3ccccc3)c(Cl)c2c1)C1CCNCC1 (stereo not shown)", "System tested": "wild type human RORγt ligand binding domain (RORγt LBD) (Homo sapiens)", "Kd [µM]": 21}

Would you kindly look at the next entry?
Enter reported Kd observed with wild type human RORγt ligand binding domain (RORγt LBD) (Homo sapiens) for Cc1nc(C)c(C(O)(c2ccc3nc(C#N)c(-c4ccccc4)c(C#N)c3c2)c2cnnn2C)s1 (stereo not shown) [Example 47a]
0.0083

----------
Target: wild type human RORγt ligand binding domain (RORγt LBD) (Homo sapiens)
Construct: His-tag (N); TurboTEV protease cleavage site (ENLYFQG) (N)
Assay: RORγt ThermoFluor® Assay (thermal shift, binding affinity)
Conditions: pH 7.0, estimated from concentration response curves
Kindly apply the following: condition met if Kd is less than 300 nM, condition not met in every other case.

{"Compound": "CCC(=O)NCCOc1nc2ccc(C(O)(c3ccc(Cl)cc3)c3cncn3C)cc2c(Cl)c1-c1ccccc1 (stereo not shown)", "Qualitative label": "condition not met"}
{"Compound": "Cn1cncc1C(O)(c1ccc2nc(C#N)c(-c3ccccc3)c(C#N)c2c1)c1ccccn1 (single isomer, unassigned) [Example 18c]", "Qualitative label": "condition not met"}
{"Compound": "CON(C)c1nc2ccc(C(O)(c3ccc(C(F)(F)F)nc3)c3cncn3C)cc2c(Cl)c1-c1ccccc1 (stereo not shown)", "Qualitative label": "condition met"}
{"Compound": "Cc1cc(C(O)(c2ccc(Cl)cc2)c2cncn2C)cc2c(C#N)c(-c3ccccc3)c(C#N)nc12 (single isomer, unassigned) [Example 23c]", "Qualitative label": "condition met"}
{"Compound": "COc1nc2ccc(C(O)(c3ccc(C(F)(F)F)nc3)c3cncn3C)cc2c(Cl)c1-c1cccc(NS(C)(=O)=O)c1 (stereo not shown)", "Qualitative label": "condition not met"}
{"Compound": "COc1nc2ccc(C(O)(c3cnnn3C)c3cnc(C)n3C)cc2c(Cl)c1-c1ccccc1 (single isomer, unassigned) [Example 41c]", "Qualitative label": "condition met"}
{"Compound": "Cc1cc(C(O)(c2ccc(C(F)(F)F)nc2)c2cncn2C)cc2c(C#N)c(-c3ccccc3)c(C#N)nc12 (single isomer, unassigned) [Example 25c]", "Qualitative label": "condition met"}
{"Compound": "CC(=O)N1CCC(C(O)(c2ccc(C(F)(F)F)nc2)c2cc(C)c3nc(C#N)c(-c4ccccc4)c(C#N)c3c2)CC1 (single isomer, unassigned) [Example 27b]", "Qualitative label": "condition not met"}

API: query returns whether the compound falls strictly under 300 nM in Kd. Query: COc1c(-c2ccccc2)c(Cl)nc2ccc(C(O)(c3cnnn3C)c3cnc(C)n3C)cc12 (stereo not shown) [Example 40a]
condition met

API: query returns whether the compound falls strictly under 300 nM in Kd. Query: COc1nc2ccc(C(O)(c3ncccn3)c3cncn3C)cc2c(Cl)c1-c1ccccc1 (single isomer, unassigned) [Example 60b]
condition not met
